target: HSD17B13 (Homo sapiens (Human)); assay: HSD17B13 enzymatic inhibition assay (150 nM or 50 nM HSD17B13); type: biochemical; settings: 50 nM HSD17B13; read-out: Inhibition of 50 nM of HSD17B13 IC50
Sequence (Q7Z5P4 other isoform, or with tags, fused parts or gaps): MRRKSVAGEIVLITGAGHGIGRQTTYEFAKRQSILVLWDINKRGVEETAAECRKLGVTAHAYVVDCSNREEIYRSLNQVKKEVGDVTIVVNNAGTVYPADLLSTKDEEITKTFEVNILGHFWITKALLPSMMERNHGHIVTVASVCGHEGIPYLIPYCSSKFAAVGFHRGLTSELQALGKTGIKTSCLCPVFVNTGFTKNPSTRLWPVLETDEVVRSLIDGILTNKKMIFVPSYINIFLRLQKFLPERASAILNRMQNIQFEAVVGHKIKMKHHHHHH
property: IC50

{"columns": ["compound", "property", "result"],
 "data": [
  ["CCc1ccc(C(=O)NC2c3ccccc3-c3ccccc32)c(=O)[nH]1 [Compound 212]", "IC50", "> 10 µM"],
  ["Cc1ccc2c(c1)Oc1cc(C)ccc1C2NC(=O)c1ccc(C(C)C)[nH]c1=O [Compound 485]", "IC50", "> 10 µM"]
]}

## Input Which IC50 reading was recorded for the compound Cc1ccc2c(c1)Oc1cccc(C)c1C2NC(=O)c1ccc(C)[nH]c1=O (stereo not drawn) [Compound 147] ?
## Output > 10 µM

Each recorded value in this set is attributed to patent US11957687B2.
